test system: human CD4+ T cells; assay: Cytokines produced by human CD4+ T cells stimulated with PMA/ionomycin; type: cell-based; details: 10 μM compound, PMA/ionomycin 20 h, read-out: Percent inhibition of TNFα (relative to DMSO control)
quantity_kind: inhibition at 10 µM (%)
Write it as a number; the unit % goes unstated.

Consider the following illustrative entries.
{"smiles_text": "CCOc1cc(C(=O)N2CCC(N3CCCC3)CC2)ccc1Nc1cc2c(cn1)N(C)C(=O)c1ccccc1N2C", "unit_name": "%", "inhibition at 10 µM": 64}
{"smiles_text": "CCOc1cc(C(=O)N2CCNCC2)ccc1Nc1cc2c(cn1)N(C)C(=O)c1ccccc1N2C", "unit_name": "%", "inhibition at 10 µM": 70.1}
{"smiles_text": "CCOc1cc(C(=O)N2CCC(N3CCN(C)CC3)CC2)ccc1Nc1cc2c(cn1)N(C)C(=O)c1occc1N2C", "unit_name": "%", "inhibition at 10 µM": 56.9}
{"smiles_text": "CCOc1cc(C(=O)N2CCC(N3CCN(C)CC3)CC2)ccc1Nc1cc2c(cn1)N(C)C(=O)c1ccccc1N2C", "unit_name": "%", "inhibition at 10 µM": 50.9}

Please look at the following compound next.
Request: inhibition at 10 µM, test system human CD4+ T cells, entry `CCOc1cc(C(=O)NCC2CC2)ccc1Nc1cc2c(cn1)N(C)C(=O)c1ccccc1N2C`
58.3

* * *

inhibition at 1 µM values by entry
biological target: JAK1 (Homo sapiens); construct: screened for activity against several kinases in Jurkat cells; endogenous in cells; host or cells: Jurkat cell lysate; assay: Probe-based (AX9989) kinase profiling in Jurkat lysate: JAK1; assay type: binding; details: screening concentration 1.0 μM; read-out: Kinase inhibition % at indicated screening concentration: JAK1
Sequence (P23458 whole entry): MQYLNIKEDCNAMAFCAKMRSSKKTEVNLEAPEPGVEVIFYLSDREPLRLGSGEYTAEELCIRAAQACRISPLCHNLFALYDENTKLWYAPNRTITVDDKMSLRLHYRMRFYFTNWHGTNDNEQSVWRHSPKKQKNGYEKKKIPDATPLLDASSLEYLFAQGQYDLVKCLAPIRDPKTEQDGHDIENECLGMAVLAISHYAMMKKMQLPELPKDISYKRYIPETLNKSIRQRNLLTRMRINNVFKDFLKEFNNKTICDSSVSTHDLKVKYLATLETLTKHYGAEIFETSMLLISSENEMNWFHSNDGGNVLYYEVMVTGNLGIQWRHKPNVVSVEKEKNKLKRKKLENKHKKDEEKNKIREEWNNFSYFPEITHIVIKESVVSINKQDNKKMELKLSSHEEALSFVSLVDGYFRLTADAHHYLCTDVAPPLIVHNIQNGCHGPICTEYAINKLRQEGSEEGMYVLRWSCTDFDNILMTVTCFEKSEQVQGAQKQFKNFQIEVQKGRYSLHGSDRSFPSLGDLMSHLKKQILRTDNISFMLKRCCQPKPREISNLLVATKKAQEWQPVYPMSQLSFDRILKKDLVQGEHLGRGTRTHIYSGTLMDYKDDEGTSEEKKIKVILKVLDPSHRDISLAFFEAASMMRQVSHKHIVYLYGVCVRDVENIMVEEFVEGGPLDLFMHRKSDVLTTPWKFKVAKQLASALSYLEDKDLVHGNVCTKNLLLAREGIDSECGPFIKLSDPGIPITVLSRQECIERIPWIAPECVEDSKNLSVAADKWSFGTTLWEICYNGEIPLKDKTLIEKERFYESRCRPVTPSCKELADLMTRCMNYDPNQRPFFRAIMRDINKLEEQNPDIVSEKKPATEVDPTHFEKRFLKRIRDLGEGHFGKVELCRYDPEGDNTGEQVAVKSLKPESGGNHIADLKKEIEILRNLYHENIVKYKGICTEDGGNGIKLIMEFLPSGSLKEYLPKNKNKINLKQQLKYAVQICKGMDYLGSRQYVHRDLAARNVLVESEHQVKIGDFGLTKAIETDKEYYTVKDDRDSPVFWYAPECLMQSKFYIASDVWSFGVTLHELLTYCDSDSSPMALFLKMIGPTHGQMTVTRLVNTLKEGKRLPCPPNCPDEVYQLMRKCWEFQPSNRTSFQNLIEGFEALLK

{"compound": "CN1C(=O)c2ccccc2N(C)c2cc(NC3CCOCC3)ncc21 [Compound 102]", "inhibition at 1 µM": "≤ 35%"}
{"compound": "Cc1ccccc1Nc1cc2c(cn1)N(C)C(=O)c1ccccc1N2C [Compound 58]", "inhibition at 1 µM": "≤ 35%"}

# context switch: different compound, same inhibition at 1 µM
Consider the compound Cc1cc(C#N)ccc1Nc1cc2c(cn1)N(C)C(=O)c1ccccc1N2C [Compound 89] and give its measured inhibition at 1 µM.
≤ 35%

* * *

target: recombinant human ERK5 catalytic domain (Homo sapiens, UniProt Q13164); construct: Recombinant human ERK5 catalytic domain radiometric assays; purchased Reaction Biology, Corp (Malvern, Pa.), which ran the assay as a service; assay: Recombinant human ERK5 radiometric (HotSpot) assay; format: biochemical; details: 10 μM ATP, 20 μM myelin basic protein substrate; read-out: rhERK5 IC50
List of IC50 values.

Consider the worked cases shown below.
{"molecule": "CCOc1cc(C(=O)N2CCN(c3cccnc3)CC2)ccc1Nc1cc2c(cn1)N(C)C(=O)c1ccccc1N2C", "quantity_kind": "IC50", "endpoint_result": "< 0.02 µM"}
{"molecule": "CCOc1cc(C(=O)N2CC[C@H](C#N)C2)ccc1Nc1cc2c(cn1)N(C)C(=O)c1ccccc1N2C", "quantity_kind": "IC50", "endpoint_result": "0.05 to 0.2 µM"}

Identify the measured IC50 of CCOc1cc(C(=O)N2CCNC(C)CC2)ccc1Nc1cc2c(cn1)N(C)C(=O)c1ccccc1N2C (stereo not drawn) for recombinant human ERK5 catalytic domain (Homo sapiens, UniProt Q13164).
< 0.02 µM

recombinant human ERK5 catalytic domain (Homo sapiens, UniProt Q13164) / IC50 / `CCOc1cc(C(=O)N2CCN(C3CCN(C)CC3)CC2)ccc1Nc1cc2c(cn1)N(C)C(=O)c1c(F)cccc1O2` : value?
0.02 to 0.05 µM

Please state recorded IC50 (tested on recombinant human ERK5 catalytic domain (Homo sapiens, UniProt Q13164)) of `CCOc1cc(C(=O)N2CC[C@@H](N3CCOCC3)C2)ccc1Nc1cc2c(cn1)N(C)C(=O)c1ccccc1N2C`
0.05 to 0.2 µM

Give IC50 (recombinant human ERK5 catalytic domain (Homo sapiens, UniProt Q13164)) of the following molecule: `CCOc1cc(C(=O)N2CCC(N3CCOCC3)CC2)ccc1Nc1cc2c(cn1)N(C)C(=O)c1ccccc1N2C`
0.02 to 0.05 µM

Lookup: IC50 / recombinant human ERK5 catalytic domain (Homo sapiens, UniProt Q13164) / `CCCOc1cc(C(=O)N2CCC(N3CCN(C)CC3)CC2)ccc1Nc1cc2c(cn1)N(C)C(=O)c1ccccc1N2C`
0.02 to 0.05 µM

Field: IC50 (recombinant human ERK5 catalytic domain (Homo sapiens, UniProt Q13164)). Entry: `CCOc1cc(C(=O)N2CCC[C@H](C#N)C2)ccc1Nc1cc2c(cn1)N(C)C(=O)c1ccccc1N2C`
> 0.2 µM

Recorded IC50 for CCOc1cc(C(=O)N2CCC(NC3CCN(C)CC3)C2)ccc1Nc1cc2c(cn1)N(C)C(=O)c1ccccc1N2C (stereo not drawn) with recombinant human ERK5 catalytic domain (Homo sapiens, UniProt Q13164), please?
0.05 to 0.2 µM

* * *

target: ERK5 (Homo sapiens, UniProt Q13164); construct: screened for activity against several kinases in Jurkat cells; endogenous in cells; host or cells: Jurkat cell lysate; assay: Probe-based (AX9989 acyl phosphate ATP probe) kinase profiling in Jurkat lysate: ERK5; format: binding; settings: calculated from percent inhibition and screening concentration; Jurkat lysate, AX9989 probe
Sequence (Q13164 whole entry): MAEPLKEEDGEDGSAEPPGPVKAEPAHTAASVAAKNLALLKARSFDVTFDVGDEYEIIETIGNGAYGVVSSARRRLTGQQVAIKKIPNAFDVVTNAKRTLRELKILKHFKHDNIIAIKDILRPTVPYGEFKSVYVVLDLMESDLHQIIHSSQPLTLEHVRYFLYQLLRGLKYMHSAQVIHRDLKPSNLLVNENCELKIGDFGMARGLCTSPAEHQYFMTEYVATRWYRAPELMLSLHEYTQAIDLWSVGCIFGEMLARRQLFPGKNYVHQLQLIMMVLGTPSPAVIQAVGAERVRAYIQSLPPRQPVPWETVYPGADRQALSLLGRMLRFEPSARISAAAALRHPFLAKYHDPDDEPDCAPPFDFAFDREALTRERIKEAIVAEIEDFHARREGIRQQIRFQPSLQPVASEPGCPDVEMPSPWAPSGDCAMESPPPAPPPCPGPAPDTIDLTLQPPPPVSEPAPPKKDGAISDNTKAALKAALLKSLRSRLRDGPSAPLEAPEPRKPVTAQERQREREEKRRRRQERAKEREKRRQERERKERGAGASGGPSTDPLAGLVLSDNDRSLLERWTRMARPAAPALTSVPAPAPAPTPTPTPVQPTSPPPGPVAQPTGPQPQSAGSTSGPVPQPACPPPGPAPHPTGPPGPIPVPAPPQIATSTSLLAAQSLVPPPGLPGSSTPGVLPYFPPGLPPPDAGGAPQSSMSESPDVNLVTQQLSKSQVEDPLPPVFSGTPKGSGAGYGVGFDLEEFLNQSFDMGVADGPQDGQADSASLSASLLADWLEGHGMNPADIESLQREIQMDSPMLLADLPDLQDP
pIC50: −log10 of the molar value.
quantity_kind: pIC50

{"molecule": "CN1CCN(C2CCN(C(=O)c3ccc(Nc4cc5c(cn4)N(C)C(=O)c4ccccc4N5C)c(OCCF)c3)CC2)CC1", "pIC50": "≥ 7.30"}

For the molecule shown here, `CCOc1cc(C(=O)N[C@H]2CC[C@H](C#N)CC2)ccc1Nc1cc2c(cn1)N(C)C(=O)c1ccccc1N2C` , give the reported pIC50.
6.30 to 7.00

Value lookup for pIC50; key = `CCOc1cc(C(=O)N2CC[C@@H](N3CCN(C)CC3)C2)ccc1Nc1cc2c(cn1)N(C)C(=O)c1scnc1N2C`
< 6.30

Please report the recorded pIC50 for `CCOc1cc(C(=O)N2CCOCC2)ccc1Nc1cc2c(cn1)N(C)C(=O)c1ccccc1S2` .
6.30 to 7.00

Reported pIC50, molecule `CCOc1cc(C(=O)N2CCC(N3CCN(C)CC3)CC2)ccc1Nc1cc2c(cn1)N(C)C(=O)c1ccccc1N2S(C)(=O)=O` : ____
< 6.30

Data request, read-out pIC50, for `CCOc1cc(C(=O)N2CCN(C3CCN(C)CC3)CC2)ccc1Nc1cc2c(cn1)N(C)C(=O)c1ccccc1N2C1CC1`
≥ 7.30

* * *

target: BRD4 bromodomain domain I [BRD4(1)] (Homo sapiens); construct: BRD4 bromodomain domain I [BRD4(1)]; purchased Cayman Chemicals; assay: BRD4 bromodomain domain 1 inhibition assay (TR-FRET); format: binding; details: screening concentration 10 μM
Measured inhibition at 10 µM, listed per entry for reference.

Consider the worked cases shown below.
{"molecule": "Cc1cc(CN2CC[C@@H](N3CCCC3)C2)ccc1Nc1cc2c(cn1)N(C)C(=O)c1ccccc1N2C [Compound 49]", "inhibition at 10 µM": "> 85%"}
{"molecule": "CCOc1cc(C(=O)N2CCNC[C@H]2C)ccc1Nc1cc2c(cn1)N(C)C(=O)c1ccccc1N2C [Compound 82]", "inhibition at 10 µM": "> 85%"}

Find the recorded inhibition at 10 µM belonging to COc1c(Nc2cc3c(cn2)N(C)C(=O)c2ccccc2N3C)cccc1C(=O)N1CCNCC1 [Compound 78] and report it.
70 to 85%

Reported inhibition at 10 µM, molecule CCOc1cc(C(=O)N2CC[C@@H](N3CCCCC3)C2)ccc1Nc1cc2c(cn1)N(C)C(=O)c1occc1N2C [Compound 56] : ____
> 85%

Can you look up the measured inhibition at 10 µM of CCOc1cc(C(=O)NCCN2CCCC2)ccc1Nc1cc2c(cn1)N(C)C(=O)c1ccccc1N2C [Compound 105] for me?
70 to 85%

What value of measured inhibition at 10 µM is listed for Cc1cc(CN2CCCC2)ccc1Nc1cc2c(cn1)N(C)C(=O)c1ccccc1N2C [Compound 106] ?
< 70%

Would you kindly share the measured inhibition at 10 µM for CCOc1cc(C(=O)N2CCC(NC3CC3)C2)ccc1Nc1cc2c(cn1)N(C)C(=O)c1ccccc1N2C (stereo not shown) [Compound 20] ?
70 to 85%

# inhibition at 10 µM lookup, item CCOc1cc(C(=O)N2CCCC(N)C2)ccc1Nc1cc2c(cn1)N(C)C(=O)c1occc1N2C (stereo not shown) [Compound 113]
> 85%

For COc1cc(C(=O)N2CCC(N(C)C)C2)ccc1Nc1cc2c(cn1)N(C)C(=O)c1ccccc1N2C (stereo not shown) [Compound 70] , what is its reported inhibition at 10 µM?
70 to 85%

What inhibition at 10 µM value was documented for this molecule, CCOc1cc(C(=O)N2CCC(N3CCCC3)CC2)ccc1Nc1cc2c(cn1)N(C)C(=O)c1occc1N2C [Compound 91] ?
> 85%

Which inhibition at 10 µM is listed for COc1cc(C(=O)N2CCC(N(C)C)C2)c(F)cc1Nc1cc2c(cn1)N(C)C(=O)c1ccccc1N2C (stereo not shown) [Compound 90] ?
< 70%

Where do these numbers come from? They come from patent US20170008888A1.
